assay_protocol: physchem
protocol_conditions: 37 °C, aqueous with cosolvent or surfactant or cyclodextrin, thermodynamic from solid
readout_type: solubility at 24 h (µg/mL)
Answers are plain numbers, in µg/mL.

Query string: // query solubility at 24 h value for entry `C[C@@H]1C[C@H]2[C@@H]3CCC4=CC(=O)C=C[C@]4(C)[C@@]3(F)[C@@H](O)C[C@]2(C)[C@@]1(O)C(=O)CO`
Result string: 221
